Data credit: paper PMC7831505

Listed here: items and their measured pIC50.
Target: mushroom tyrosinase
Experiment: Tyrosinase enzymatic assay (diphenolase activity, dose-response IC50)
Conditions: L-DOPA 1 mM as substrate; pH 6.8, 25 °C; n = 3
Description: In order to determine the IC50, dose–response analysis for all investigated compounds was performed. […] The enzyme was isolated from Agaricus bisporus, purchased from a local supplier in Wroclaw, and prepared as described in our previous papers, according to known procedures reported in the literature. The full description of enzyme preparation is included in the Supplementary Materials (Section 2). […] L-DOPA was dissolved in a 0.15 mM phosphoric (V) acid solution to a concentration of 5 mM. […]
// pIC50: -log10(molar conc.)

Check out these entries, answers already filled in.
1. COc1ccc(/C(C)=N/NC(N)=S)cc1
5.74
2. CC(=NNC(N)=S)c1ccccc1N
4.95
3. C/C(=N\NC(N)=S)c1cccc(N)c1
6.19
4. COc1cccc(/C(C)=N/NC(N)=S)c1
5.72
5. C/C(=N\NC(N)=S)c1cccc(O)c1
6.02
6. NC(=S)N/N=C\c1ccccc1 [Benzaldehyde TSC, benzaldehyde thiosemicarbazone, reference compound]
5.47

For the next question, use this molecule.
# value lookup — system mushroom tyrosinase, readout pIC50, item COc1ccccc1C(C)=NNC(N)=S
4.91
